Assay: Solubility screening of veldoreotide acetate (10 mg, incremental volumes of medium, USP definition)
Type: physicochemical
Measurement Setup: Acetic acid 1% (glacial), 0.1 ml Freely soluble (0.1 g/ml), 10 mg in Acetic acid 1% (glacial)
Property Label: solubility

Q. // lookup solubility for C[C@@H](O)[C@@H]1NC(=O)[C@H](CCCCN)NC(=O)[C@@H](Cc2c[nH]c3ccccc23)NC(=O)[C@H](Cc2c[nH]c3ccccc23)NC(=O)[C@H](Cc2ccccc2)NC(=O)CCCNC(=O)CCCN(CC(N)=O)C(=O)[C@H](Cc2ccccc2)NC1=O [Veldoreotide Acetate]
A. > 100 mg/mL

###

Assay: Solubility screening of veldoreotide acetate (10 mg, incremental volumes of medium, USP definition)
Format: physicochemical
Measurement Setup: refined vegetable oils (olive, cotton, coconut, canola), 10 mg in Refined vegetable oils; Olive, Cotton, Coconut, Canola; read-out: 0.5 ml Soluble (0.02 g/ml; 20 mg/ml)
Property Label: solubility

Q. Could you tell me which solubility is on file for C[C@@H](O)[C@@H]1NC(=O)[C@H](CCCCN)NC(=O)[C@@H](Cc2c[nH]c3ccccc23)NC(=O)[C@H](Cc2c[nH]c3ccccc23)NC(=O)[C@H](Cc2ccccc2)NC(=O)CCCNC(=O)CCCN(CC(N)=O)C(=O)[C@H](Cc2ccccc2)NC1=O [Veldoreotide Acetate] ?
A. < 20 mg/mL

###

Assay: Solubility screening of veldoreotide acetate (10 mg, incremental volumes of medium, USP definition)
Format: physicochemical
Measurement Setup: 0.1% TFA, 10 ml Slightly soluble (0.001 g/ml; 1 mg/ml), 10 mg in 0.1% TFA
Text: The solubility of veldoreotide acetate in aqueous media was screened by the following method. […] Following the results of the screening studies, several media were selected for verification studies based on quantitative assessment of the peptide concentration by HPLC (maximal solubility). […]
Property Label: solubility

Q. So what does the record say about solubility for C[C@@H](O)[C@@H]1NC(=O)[C@H](CCCCN)NC(=O)[C@@H](Cc2c[nH]c3ccccc23)NC(=O)[C@H](Cc2c[nH]c3ccccc23)NC(=O)[C@H](Cc2ccccc2)NC(=O)CCCNC(=O)CCCN(CC(N)=O)C(=O)[C@H](Cc2ccccc2)NC1=O [Veldoreotide Acetate] ?
A. > 1000 µg/mL

###

Assay: Solubility screening of veldoreotide acetate (10 mg, incremental volumes of medium, USP definition)
Format: physicochemical
Measurement Setup: glycerol, 10 mg in Glycerol; read-out: 0.01 ml Very soluble (1 g/ml)
Description: The solubility of veldoreotide acetate in aqueous media was screened by the following method. […] Following the results of the screening studies, several media were selected for verification studies based on quantitative assessment of the peptide concentration by HPLC (maximal solubility). […]
Property Label: solubility

Q. Which solubility is listed for C[C@@H](O)[C@@H]1NC(=O)[C@H](CCCCN)NC(=O)[C@@H](Cc2c[nH]c3ccccc23)NC(=O)[C@H](Cc2c[nH]c3ccccc23)NC(=O)[C@H](Cc2ccccc2)NC(=O)CCCNC(=O)CCCN(CC(N)=O)C(=O)[C@H](Cc2ccccc2)NC1=O [Veldoreotide Acetate] ?
A. < 1000 mg/mL

###

Assay: Solubility screening of veldoreotide acetate (10 mg, incremental volumes of medium, USP definition)
Type: physicochemical
Measurement Setup: caprylic acid, 10 ml Slightly soluble (0.001 g/ml; 1 mg/ml), 10 mg in Caprylic acid
Property Label: solubility

Q. For the compound C[C@@H](O)[C@@H]1NC(=O)[C@H](CCCCN)NC(=O)[C@@H](Cc2c[nH]c3ccccc23)NC(=O)[C@H](Cc2c[nH]c3ccccc23)NC(=O)[C@H](Cc2ccccc2)NC(=O)CCCNC(=O)CCCN(CC(N)=O)C(=O)[C@H](Cc2ccccc2)NC1=O [Veldoreotide Acetate] , what solubility is on record?
A. > 1000 µg/mL

Recorded values, source patent US10398751B2.
